This collection of values is drawn from PubChem BioAssay AID1463.

- measurement.description: Counterscreen qHTS for Inhibitors of Tau Fibril Formation, Fluorescence Polarization; note: nearly all actives have a fitted effect of over 55% in size
- experimental.context: tau K18 P301L Alexa594 fluorescence, heparin fibrillization; series mostly up to 57.7 µM
About 2,600 (0.93%) of roughly 280,000 compounds were called active. Roughly 8% stayed inconclusive and do not appear here. Calls come from the whole dose curve; as a rule, active = well fitted curve in the direction sought with a large enough effect; inconclusive = small, poorly fitted or top-dose-only effect; inactive = flat fitted curve, though single readings scatter. For the sample, actives were picked, then their nearest neighbours and some compounds at random.
Pick one and only one: t for active, f for inactive

Exercise: Dear all, I need the recorded test outcome for CCN1CCN(c2nc(Nc3cc(OC)ccc3OC)nc(Nc3cc(OC)ccc3OC)n2)CC1 , thank you.
Solution: t

Exercise: Hey, what did the test say about CCOc1ccc(OCC)c(NC(=O)c2c(C)nn(-c3ccccc3)c2-n2cccc2)c1 ?
Solution: f

Exercise: For this compound, state the assay outcome: Cc1cc(O)ccc1-c1cnc2ccccc2n1
Solution: f

Exercise: Each compound tested received a call. Report the one for Oc1ccc(N2CCN(C(=S)NCc3ccccc3)CC2)cc1 .
Solution: f

Exercise: What did the test return for CCCOc1ccc(-c2cccc(NS(=O)(=O)c3ccccc3)c2)nn1 ?
Solution: f

====

- measurement.description: Counterscreen qHTS for Inhibitors of Tau Fibril Formation, Fluorescence Polarization; note: nearly all actives have a fitted effect of over 55% in size
- experimental.context: tau K18 P301L Alexa594 fluorescence, heparin fibrillization; series mostly up to 57.7 µM
- Method: NIH Molecular Libraries Probe Production Network [MLPCN] NIH Chemical Genomics Center [NCGC] Assay Provider: Carlo Ballatore, University of Pennsylvania The microtubule-associated protein tau is an abundant protein in the axons of neurons that stabilizes microtubules. […] Total fluorescence (555 nm excitation and 632 nm emission) was measured to identify fluorescent or absorbent compounds at this wavelength. […]
The campaign covered roughly 280,000 compounds. About 2,600 (0.93%) were called active. Roughly 8% stayed inconclusive and do not appear here. Calls follow the shape of the dose curve; as a rule, active = well fitted curve in the direction sought with a large enough effect; inconclusive = small, poorly fitted or top-dose-only effect; inactive = flat fitted curve, though single readings scatter. Many of the other results were omitted from the sample, so actives are more common in it than they were.
// allowed return values: active, inactive

Some solved entries appear below for comparison.
Cc1ccc(C(=O)NNC(=O)c2cc3cc4ccccc4nc3s2)cc1 ... inactive
COc1cc(OC)c2c(-c3cccc(-c4cccc(N)c4)c3)cc(=O)oc2c1 ... active

Consider the additional molecule presented here.
Exercise: Recorded test outcome, item COc1cc(NS(=O)(=O)c2cccs2)cc(OC)c1
Solution: inactive

====

- measurement.description: Counterscreen qHTS for Inhibitors of Tau Fibril Formation, Fluorescence Polarization; note: nearly all actives have a fitted effect of over 55% in size
- experimental.context: tau K18 P301L Alexa594 fluorescence, heparin fibrillization; series mostly up to 57.7 µM
Out of some 280,000 compounds screened, about 2,600 (0.93%) were called active. Another 8% or so got no clear call; they are omitted. Calls follow the shape of the dose curve; as a rule, active = well fitted curve in the direction sought with a large enough effect; inconclusive = small, poorly fitted or top-dose-only effect; inactive = flat fitted curve, though single readings scatter. The sample holds actives, similar compounds and a random draw of the others, so the mix is not that of the screen.
Hello, when you answer, please use one of the following outcomes: active, inactive

Example entries begin here.
COc1ccc(Br)cc1C1CC(=O)Nc2c1c(C)nn2-c1nc(C)cc(C)n1 (stereo not given) ... inactive
CC1CCN(S(=O)(=O)c2ccc3c(c2)N(CC(=O)NCCc2ccccc2)C(=O)CO3)CC1 ... inactive

Exercise: Which outcome was assigned to Fc1ccc2[nH]c3c(N4CCSCC4)ncnc3c2c1 in this test?
Solution: inactive

Exercise: For Cn1c(=O)c2c(nc(N/N=C/c3cccs3)n2Cc2ccc(Br)cc2)n(C)c1=O , which call appears in the assay record?
Solution: active

Exercise: What outcome does the record of this test show for O=c1[nH]c(N2CCN(Cc3ccc4c(c3)OCO4)CC2)nc2c1CCCC2 ?
Solution: inactive

====

- measurement.description: Counterscreen qHTS for Inhibitors of Tau Fibril Formation, Fluorescence Polarization; note: nearly all actives have a fitted effect of over 55% in size
- experimental.context: tau K18 P301L (four-repeat tau fragment) Alexa594 fluorescence, heparin fibrillization; series mostly up to 57.7 µM
Among all 280,000 compounds or so, about 2,600 (0.93%) were called active. About 8% were inconclusive and are not listed. This is one part of a sample in which actives are shown more often than they occur.
endpoint.name: outcome

COc1ccc(C2CC(=O)Nc3cc(C)c(C)cc32)c(OC)c1OC (stereo not drawn) ... inactive
O=C(Nc1cccc(Cl)c1)OCc1ccccn1 ... inactive
CCCCn1c(CNC(=O)C23CC4CC(CC(C4)C2)C3)nnc1SCC(=O)Nc1ccc(C)cc1 ... inactive
